Test system: Serratia marcescens S6
Test: MIC by broth microdilution (NCCLS M7-A5)
Conditions: + 324 + clavulanate, 4 mg/L each
Property Label: MIC of antibiotic (µg/mL)

The following molecules have reported results that may help.
CC1(C)C(NC(=O)C(=NOCc2cc(=O)c(O)cn2O)c2nsc(N)n2)C(=O)N1OS(=O)(=O)O (stereo not drawn)	0.25
CC1C(NC(=O)C(=NOCc2cc(=O)c(O)cn2O)c2csc(N)n2)C(=O)N1S(=O)(=O)O (stereo not drawn)	1

a: NC(=O)OCC1C(NC(=O)C(=NOCc2cc(=O)c(O)cn2O)c2nc(N)sc2Cl)C(=O)N1OS(=O)(=O)O (stereo not drawn)
b: C[C@H](ON1C(=O)[C@@H](NC(=O)/C(=N\OCc2cc(=O)c(O)cn2O)c2csc(N)n2)[C@@H]1C)C(=O)O
Please indicate which has the smaller reported MIC of antibiotic: a , or b . Kindly give the label for the entry you pick.
b
(b: 0.25 µg/mL, a: 2 µg/mL)

1: NC(=O)OCC1C(NC(=O)C(=NOCc2cc(=O)c(O)cn2O)c2csc(N)n2)C(=O)N1OS(=O)(=O)O (stereo not drawn)
2: CC1(C)C(NC(=O)C(=NOCc2cc(=O)c(O)cn2O)c2csc(N)n2)C(=O)N1OCC(=O)O (stereo not drawn)
Please indicate which has the smaller reported MIC of antibiotic: 1 , or 2 . Kindly give the label for the entry you pick.
2

* * *

Test system: Pseudomonas aeruginosa MK1184
Experiment: MIC by broth microdilution (NCCLS M7-A5)
Settings: + 102 + clavulanate, 4 mg/L each
Property Label: MIC of antibiotic (µg/mL)

C[C@H]1[C@H](NC(=O)/C(=N\OCc2cc(=O)c(O)cn2O)c2nc(N)sc2Cl)C(=O)N1OS(=O)(=O)O	8

A: CC1(C)C(NC(=O)C(=NOCc2cc(=O)c(O)cn2O)c2csc(N)n2)C(=O)N1OCC(=O)O (stereo not shown)
B: NC(=O)OCC1C(NC(=O)C(=NOCc2cc(=O)c(O)cn2O)c2nc(N)sc2Cl)C(=O)N1OS(=O)(=O)O (stereo not shown)
C: CC1C(NC(=O)C(=NOCc2cc(=O)c(O)cn2O)c2noc(N)n2)C(=O)N1S(=O)(=O)O (stereo not shown)
Please list these compounds in decreasing order of MIC of antibiotic. List the labels, following the order given in the request.
A, C, B

* * *

Tested on: Stenotrophomonas malthophilia 1AC736
Assay: MIC by broth microdilution (NCCLS M7-A5)
Conditions: Stenotrophomonas maltophilia 1AC736; + 102 + clavulanate, 4 mg/L each
Property Label: MIC of antibiotic (µg/mL)

The following compounds have reported results that may help.
CC1C(NC(=O)C(=NOCc2cc(=O)c(O)cn2O)c2csc(N)n2)C(=O)N1S(=O)(=O)O (stereo not drawn) [Compound 1]	0.125
NC(=O)OCC1C(NC(=O)C(=NOCc2cc(=O)c(O)cn2O)c2csc(N)n2)C(=O)N1OCC(=O)O (stereo not drawn) [Compound 41]	2

A: CC1(C)C(NC(=O)C(=NOCc2cc(=O)c(O)cn2O)c2csc(N)n2)C(=O)N1OCC(=O)O (stereo not drawn) [Compound 33]
B: C[C@H]1[C@H](NC(=O)/C(=N\OCc2cc(=O)c(O)cn2O)c2csc(N)n2)C(=O)N1OCC(=O)O [Compound 22]
C: CC1C(NC(=O)C(=NOCc2cc(=O)c(O)cn2O)c2csc(NC=O)n2)C(=O)N1S(=O)(=O)O (stereo not drawn) [Compound 28]
D: C[C@H]1[C@H](NC(=O)/C(=N\OC(C)(C)C(=O)O)c2csc(N)n2)C(=O)N1S(=O)(=O)O [Aztreonam, aztreonam, reference compound]
Please list these compounds in decreasing order of MIC of antibiotic. List the labels, following the order given in the request.
C, D, A, B
(C: 8 µg/mL, D: 4 µg/mL, A: 2 µg/mL, B: 1 µg/mL)

Data provenance is patent US9346799B2.
